Target: HPK1
Assay: HPK1 Lantha Binding Assay ("Lanth")
Conditions: Table B1-1, read-out: HPK1 Ki (μM) (Lanth)
reported-property: Ki (pM)

compound: Cc1ccncc1-c1cc2cc(Nc3cnn([C@H](C)C#N)c3)ncc2c(N)n1 (single isomer, unassigned) [Compound 273]
Ki, pM: 67.5

compound: Cc1ccncc1-c1cc2cc(Nc3cnn([C@H]4CCCN(C)C4=O)c3)ncc2c(N)n1 [Compound 252]
Ki, pM: 569

compound: Cc1ccncc1-c1cc2cc(NC(=O)C3CC3(C)CO)ncc2c(N)n1 (stereo not drawn) [Compound 209]
Ki, pM: 30700

I: Cc1ccncc1-c1cc2cc(NC(=O)[C@H]3C[C@@H]3C(C)(C)O)ncc2c(N)n1 [Compound 242]
II: Cc1ccncc1-c1cc2cc(Nc3cnn(CC(C)(C)O)c3)ncc2c(N)n1 [Compound 260]
Of the pair I and II , name the member with the lesser recorded Ki. Which one? Tell me its label.
II
(II: 730 pM, I: 31200 pM)
